# SYSTEM NAME: full-length MALT1 protein His-MALT1(1-824) (Homo sapiens, UniProt Q9UDY8)
# Sequence (Q9UDY8 1-824): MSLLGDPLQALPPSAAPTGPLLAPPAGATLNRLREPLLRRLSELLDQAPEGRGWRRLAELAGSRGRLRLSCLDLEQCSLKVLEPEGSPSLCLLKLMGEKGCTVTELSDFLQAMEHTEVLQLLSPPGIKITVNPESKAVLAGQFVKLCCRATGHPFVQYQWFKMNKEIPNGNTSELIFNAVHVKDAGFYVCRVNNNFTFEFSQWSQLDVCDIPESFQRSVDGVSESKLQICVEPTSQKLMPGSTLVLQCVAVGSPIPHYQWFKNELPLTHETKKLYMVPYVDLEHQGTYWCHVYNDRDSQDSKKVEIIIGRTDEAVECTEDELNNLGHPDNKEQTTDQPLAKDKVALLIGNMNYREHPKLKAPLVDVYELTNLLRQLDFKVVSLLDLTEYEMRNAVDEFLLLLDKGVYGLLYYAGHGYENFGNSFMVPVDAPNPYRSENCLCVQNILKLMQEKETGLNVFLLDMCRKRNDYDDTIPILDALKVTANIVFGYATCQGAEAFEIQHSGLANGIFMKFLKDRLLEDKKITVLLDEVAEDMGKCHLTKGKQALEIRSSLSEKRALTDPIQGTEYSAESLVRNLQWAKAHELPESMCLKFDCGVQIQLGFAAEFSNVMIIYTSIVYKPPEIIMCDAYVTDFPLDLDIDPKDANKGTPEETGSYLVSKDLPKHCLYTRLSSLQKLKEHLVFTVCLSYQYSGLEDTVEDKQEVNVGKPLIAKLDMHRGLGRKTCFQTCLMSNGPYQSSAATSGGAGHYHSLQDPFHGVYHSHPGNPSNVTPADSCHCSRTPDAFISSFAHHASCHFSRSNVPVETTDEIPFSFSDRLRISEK
pIC50: −log10 of the molar value.
PROPERTY: pIC50

Illustrative cases are given below, each with its answer.
* Cn1cc([C@@]2(C)C[C@@H](C(=O)Nc3cnc(-n4nccn4)c(Cl)c3)c3cnc4c(F)c(F)nn4c32)cn1 (single isomer, unassigned) [Example 15] | 6.00 to 7.00
* Cc1cc(NC(=O)[C@@H]2C[C@@](C)(c3cnn(C)c3)c3c2cnc2cc(F)nn32)cnc1-n1nccn1 (single isomer, unassigned) [Example 57] | ≤ 6.00

Q) Please look at this compound and report its pIC50: C[C@]1(c2ccn(C3CC3)n2)C[C@@H](C(=O)Nc2cnc(-n3nccn3)c(Cl)c2)c2cnc3cc(F)nn3c21 (single isomer, unassigned) [Example 155]
A) ≤ 6.00

Q) Please look at this compound and report its pIC50: Cc1cc(NC(=O)[C@H]2C[C@](C)(c3cnn(C)c3)c3c2cnc2cc(F)nn32)cnc1-n1nccn1 (single isomer, unassigned) [Example 56]
A) 7.00 to 8.00

Q) Please look at this compound and report its pIC50: Cn1cc([C@]2(C)C[C@@H](C(=O)Nc3cnc(-n4nccn4)c(Cl)c3)c3cnc4c(Cl)c(F)nn4c32)cn1 (single isomer, unassigned) [Example 17]
A) ≤ 6.00

Q) Please look at this compound and report its pIC50: Cn1ccc([C@@]2(C)C[C@H](C(=O)Nc3cnc(OC(F)F)c(C#N)c3)c3cnc4cc(F)nn4c32)n1 (single isomer, unassigned) [Example 68]
A) > 8.00
